- Species on record: Rattus norvegicus
- Measurement Description: DrugMatrix - Regimen: Daily Repeat
- Assay type: toxicity, organism-based, Sprague-Dawley
- Design: regimen Daily Repeat, gender Male, age 6-8 weeks
- Condition Set: in vivo, po, 0 mg/kg, 72 h, tissue Plasma, route oral GAVAGE, dose level Control, time 3 day, vehicle 100 % WATER
Parameter: ALKALINE PHOSPHATASE (u/L)
Give bare numbers, in u/L.

The cases that follow already have their ALKALINE PHOSPHATASE on record.
COc1cc2nc(N3CCN(C(=O)C4COc5ccccc5O4)CC3)nc(N)c2cc1OC (stereo unspecified)	395
C[C@](N)(Cc1ccc(O)c(O)c1)C(=O)O	331
CC(O)CO (stereo unspecified)	390.83
Nc1c2c(nc3ccccc13)CCCC2	399.83
c1ccc([C@H]2CN3CCSC3=N2)cc1	346.5

--- query ---
Problem: I would be grateful if you could share the reported ALKALINE PHOSPHATASE for `N[C@@H](Cc1ccc(O)c(O)c1)C(=O)O` .
Result: 395
